- Experimental details: first-in-human single ascending dose and food-effect study, plasma pharmacokinetics
- Format: in vivo
- Stated conditions: both sexes, human, plasma, po, 150 mg, plasma metabolite NRL-2017; median; 150 mg NRL-1049 single oral, Fed, Cohort 3, N = 10; read-out: Tmax
Measure name: Tmax (h)
Respond numerically; units are h and should not be typed.

Requested field: Tmax. Item: C[C@@H](N)C1CCN(S(=O)(=O)c2cccc3c(O)nccc23)CC1 [NRL-2017, 1-hydroxy NRL-1049]
1.75

---

- Experimental details: first-in-human single ascending dose and food-effect study, plasma pharmacokinetics
- Assay type: in vivo
- Stated conditions: both sexes, human, plasma, po, 25 mg, plasma NRL-1049; mean; 25 mg NRL-1049 single oral, fasting, Cohort 1, N = 6; read-out: AUC0-Tmax
Measure name: AUC (ng·h/mL)
Respond numerically; units are ng·h/mL and should not be typed.

Requested field: AUC. Item: C[C@@H](N)C1CCN(S(=O)(=O)c2cccc3cnccc23)CC1 [NRL-1049]
1.26

---

- Experimental details: first-in-human single ascending dose and food-effect study, plasma pharmacokinetics
- Assay type: in vivo
- Stated conditions: both sexes, human, plasma, po, 150 mg, plasma NRL-1049; mean; 150 mg NRL-1049 single oral, Fasted, Cohort 3, N = 6; read-out: Vz/F
Measure name: Vd/F (L)
Respond numerically; units are L and should not be typed.

Requested field: Vd/F. Item: C[C@@H](N)C1CCN(S(=O)(=O)c2cccc3cnccc23)CC1 [NRL-1049]
10800

---

- Test system: CYP3A4
- Experimental details: CYP induction in hepatocyte culture
- Format: in vitro ADME
- Stated conditions: in at least one hepatocyte culture; read-out: induction of CYP3A4, half-maximal effective concentration [EC50]
- Protocol: Exposure to NRL-2017 was similar or greater (up to 5-fold) than that to NRL-1049 in rats when dosed once a day (QD). In monkeys, exposure to NRL-2017 was also greater (up to 33-fold) than that to NRL-1049. When rats were dosed twice a day (BID) for 14 days, there was a decrease in formation of NRL-2017 with exposure to NRL-2017 lower than that of NRL-1049 (ratio as low as 0.06). […] NRL-1049 bound to human serum albumin and human alpha1-acid glycoprotein. […]
Measure name: EC50 (µM)
Respond numerically; units are µM and should not be typed.

Requested field: EC50. Item: C[C@@H](N)C1CCN(S(=O)(=O)c2cccc3cnccc23)CC1
41.5

---

- Experimental details: first-in-human single ascending dose and food-effect study, plasma pharmacokinetics
- Assay type: in vivo
- Stated conditions: both sexes, human, plasma, po, 75 mg, plasma NRL-1049; mean; 75 mg NRL-1049 single oral, fasting, Cohort 2, N = 6; read-out: AUC0-T
Measure name: AUC(0-t) (ng·h/mL)
Respond numerically; units are ng·h/mL and should not be typed.

Requested field: AUC(0-t). Item: C[C@@H](N)C1CCN(S(=O)(=O)c2cccc3cnccc23)CC1
13.8

---

- Experimental details: first-in-human single ascending dose and food-effect study, plasma pharmacokinetics
- Type: in vivo
- Stated conditions: both sexes, human, plasma, po, 150 mg, plasma NRL-1049; mean; 150 mg NRL-1049 single oral, Fasted, Cohort 3, N = 6; read-out: AUC0-Tmax
Measure name: AUC

Requested field: AUC. Item: C[C@@H](N)C1CCN(S(=O)(=O)c2cccc3cnccc23)CC1
6.16 ng·h/mL

The origin of these recorded values is patent US20250281479A1.
